Entries and their GI50
- TEST_NAME: Anticancer activity against ovarian cancer cells
- Format: functional
- STATED_CONDITIONS: Homo sapiens, Cancer cell lines
MEASUREMENT_TYPE: GI50 (µM)

INSERT INTO assay_data (chem_smiles, output_unit, numeric_readout) VALUES
  ('O=C(c1ccco1)c1nc2cc(C(F)(F)F)ccc2[n+]([O-])c1C(F)(F)F', 'µM', 42.5),
  ('O=C(c1ccco1)c1c(C(F)(F)F)[n+]([O-])c2cc(Cl)c(Cl)cc2[n+]1[O-]', 'µM', 1.65),
  ('O=C(c1ccco1)c1c(C(F)(F)F)[n+]([O-])c2ccccc2[n+]1[O-]', 'µM', 1.45),
  ('O=C(c1ccccc1)c1c(C(F)(F)F)[n+]([O-])c2ccc(C(F)(F)F)cc2[n+]1[O-]', 'µM', 0.58),
  ('O=C(c1ccco1)c1nc2cc(C(F)(F)F)ccc2nc1C(F)(F)F', 'µM', 90.9),
  ('O=C(c1ccc2ccccc2c1)c1c(C(F)(F)F)[n+]([O-])c2ccc(C(F)(F)F)cc2[n+]1[O-]', 'µM', 0.47),
  ('O=C(c1cccs1)c1c(C(F)(F)F)[n+]([O-])c2cc(C(F)(F)F)ccc2[n+]1[O-]', 'µM', 0.2),
  ('O=C(c1ccco1)c1c(C(F)(F)F)nc2ccc(C(F)(F)F)cc2[n+]1[O-]', 'µM', 29.3),
  ('O=C(c1ccc2ccccc2c1)c1c(C(F)(F)F)[n+]([O-])c2cc(Cl)c(Cl)cc2[n+]1[O-]', 'µM', 1.51),
  ('O=C(c1ccco1)c1c(C(F)(F)F)[n+]([O-])c2cc(C(F)(F)F)ccc2[n+]1[O-]', 'µM', 0.65),
  ('O=C(c1ccc2ccccc2c1)c1c(C(F)(F)F)[n+]([O-])c2ccc(Cl)cc2[n+]1[O-]', 'µM', 1.2),
  ('O=C(c1ccccc1)c1c(C(F)(F)F)[n+]([O-])c2ccc(F)cc2[n+]1[O-]', 'µM', 1.34),
  ('COc1ccc2c(c1)[n+]([O-])c(C(=O)c1ccco1)c(C(F)(F)F)[n+]2[O-]', 'µM', 2.51),
  ('O=C(c1ccco1)c1nc2ccc(C(F)(F)F)cc2[n+]([O-])c1C(F)(F)F', 'µM', 43),
  ('Cc1cc2c(cc1C)[n+]([O-])c(C(F)(F)F)c(C(=O)c1cccs1)[n+]2[O-]', 'µM', 2.34),
  ('O=C(c1ccco1)c1c(C(F)(F)F)[n+]([O-])c2ccc(C(F)(F)F)cc2[n+]1[O-]', 'µM', 0.72),
  ('Cc1ccc2c(c1)[n+]([O-])c(C(=O)c1cccs1)c(C(F)(F)F)[n+]2[O-]', 'µM', 0.27),
  ('O=C(c1cccs1)c1c(C(F)(F)F)[n+]([O-])c2ccccc2[n+]1[O-]', 'µM', 0.75),
  ('Cc1ccc2c(c1)[n+]([O-])c(C(=O)c1ccco1)c(C(F)(F)F)[n+]2[O-]', 'µM', 0.85);

* * *

- TEST_NAME: Anticancer activity against human NCI60 cells
- Assay type: functional
Everything with TGI lower than 6 µM is Criterion not met; everything else, including exactly 6 µM, is Criterion met.

INSERT INTO results (chem_smiles, assigned_category) VALUES
  ('Cc1cc2c(cc1C)[n+]([O-])c(C(F)(F)F)c(C(=O)c1cccs1)[n+]2[O-]', 'Criterion met'),
  ('O=C(c1ccc2ccccc2c1)c1c(C(F)(F)F)[n+]([O-])c2cc(F)c(F)cc2[n+]1[O-]', 'Criterion met'),
  ('O=C(c1ccccc1)c1c(C(F)(F)F)[n+]([O-])c2ccc(F)cc2[n+]1[O-]', 'Criterion not met'),
  ('O=C(c1cccs1)c1c(C(F)(F)F)[n+]([O-])c2cc(C(F)(F)F)ccc2[n+]1[O-]', 'Criterion not met'),
  ('Cc1ccc2c(c1)[n+]([O-])c(C(=O)c1cccs1)c(C(F)(F)F)[n+]2[O-]', 'Criterion not met'),
  ('COc1ccc2c(c1)[n+]([O-])c(C(=O)c1ccco1)c(C(F)(F)F)[n+]2[O-]', 'Criterion met'),
  ('COc1ccc2c(c1)[n+]([O-])c(C(=O)c1cccs1)c(C(F)(F)F)[n+]2[O-]', 'Criterion met'),
  ('O=C(c1cccs1)c1c(C(F)(F)F)[n+]([O-])c2ccc(Cl)cc2[n+]1[O-]', 'Criterion not met'),
  ('O=C(c1ccc2ccccc2c1)c1c(C(F)(F)F)[n+]([O-])c2ccc(C(F)(F)F)cc2[n+]1[O-]', 'Criterion not met');
